- Tested on: Rattus norvegicus
- Test Description: Hypolipidemic activity was determined in male rats, and low-density lipoprotein level was determined at 50 mg/kg
- Assay type: functional
Each entry below carries its reported Activity.
Measured Quantity: Activity (%)

Compound	Result Value
COC1/C=C/OC2(C)Oc3c(C)c(O)c4c(O)c(c(N5CCN(Cc6ccc(Cl)cc6)CC5)c(O)c4c3C2=O)NC(=O)/C(C)=C\C=C\C(C)C(O)C(C)C(O)C(C)C(OC(C)=O)C1C (stereo not drawn)	-85
CO[C@H]1/C=C/O[C@@]2(C)Oc3c(C)c(O)c4c(O)c(cc(O)c4c3C2=O)NC(=O)/C(C)=C\C=C\[C@H](C)[C@H](O)[C@@H](C)[C@@H](O)[C@@H](C)[C@H](OC(C)=O)[C@@H]1C	21
COC1/C=C/OC2(C)Oc3c(C)c(O)c4c(O)c(c(C=NN5CCN6CCCCC6C5)c(O)c4c3C2=O)NC(=O)/C(C)=C\C=C\C(C)C(O)C(C)C(O)C(C)C(OC(C)=O)C1C (stereo not drawn)	-27

====

- Tested on: Rattus norvegicus
- Test Description: Hypolipidemic activity was determined in male rats, and high-density lipoprotein level was determined at 20 mg/kg
- Assay type: functional
Each entry below carries its reported Activity.
Measured Quantity: Activity (%)

Molecule	Result Value
COC1/C=C/OC2(C)Oc3c(C)c(O)c4c(O)c(c(N5CCC(=O)CC5)c(O)c4c3C2=O)NC(=O)/C(C)=C\C=C\C(C)C(O)C(C)C(O)C(C)C(OC(C)=O)C1C (stereo not drawn)	-9
CCC1CCN(c2c3c(O)c4c(O)c(C)c5c(c4c2O)C(=O)C(C)(O/C=C/C(OC)C(C)C(OC(C)=O)C(C)C(O)C(C)C(O)C(C)/C=C/C=C(/C)C(=O)N3)O5)CC1 (stereo not drawn)	-61
COC1/C=C/OC2(C)Oc3c(C)c(O)c4c(O)c(c(N5CCN(Cc6c(C)cc(C)cc6C)CC5)c(O)c4c3C2=O)NC(=O)/C(C)=C\C=C\C(C)C(O)C(C)C(O)C(C)C(OC(C)=O)C1C (stereo not drawn)	-58

====

- Test system: Rattus norvegicus
- Test Description: Tested for hypolipidemic activity in male rats, cholesterol was determined in serum at 50 mg/kg
- Format: functional

Compound	System Under Test	Unit	Activity
CO[C@H]1/C=C/O[C@@]2(C)Oc3c(C)c(O)c4c(O)c(cc(O)c4c3C2=O)NC(=O)/C(C)=C\C=C\[C@H](C)[C@H](O)[C@@H](C)[C@@H](O)[C@@H](C)[C@H](OC(C)=O)[C@@H]1C [RIFAMYCIN]	Rattus norvegicus	%	4
Cc1cc(C)c(CN2CCN(C3=CC(=O)c4ccccc4C3=O)CC2)c(C)c1	Rattus norvegicus	%	-1
Cc1cc(C)c(CN2CCNCC2)c(C)c1	Rattus norvegicus	%	-7

====

- Test system: Rattus norvegicus
- Test Description: Hypolipidemic activity was determined in male rats, and low-density lipoprotein level was determined at 50 mg/kg
- Type: functional

Compound	System Under Test	Activity (%)
COC1/C=C/OC2(C)Oc3c(C)c(O)c4c(O)c(c5nc6cc(C)ccc6nc5c4c3C2=O)NC(=O)/C(C)=C\C=C\C(C)C(O)C(C)C(O)C(C)C(OC(C)=O)C1C (stereo not drawn)	Rattus norvegicus	-21
COC1/C=C/OC2(C)Oc3c(C)c(O)c4c(O)c(c(C=NN5CCN(Cc6cccc7ccccc67)CC5)c(O)c4c3C2=O)NC(=O)/C(C)=C\C=C\C(C)C(O)C(C)C(O)C(C)C(OC(C)=O)C1C (stereo not drawn)	Rattus norvegicus	-35
COC1/C=C/OC2(C)Oc3c(C)c(O)c4c(O)c(c(N5CCN(CC(C)C)CC5)c(O)c4c3C2=O)NC(=O)/C(C)=C\C=C\C(C)C(O)C(C)C(O)C(C)C(OC(C)=O)C1C (stereo not drawn)	Rattus norvegicus	-64

====

- Test system: Staphylococcus aureus
- Test Description: Antibacterial activity against Staphylococcus aureus 10B
- Assay type: functional
Exam item: assign met to entries whose MIC is below 0.01 µg/mL and not met to entries at or above 0.01 µg/mL. Note that a value of exactly 0.01 µg/mL receives not met.

Compound	System Under Test	Label
CCC1CCC2CN(N=Cc3c4c(O)c5c(O)c(C)c6c(c5c3O)C(=O)C(C)(O/C=C/C(OC)C(C)C(OC(C)=O)C(C)C(O)C(C)C(O)C(C)/C=C/C=C(/C)C(=O)N4)O6)CCN2C1 (configuration not stated)	Staphylococcus aureus	met
COC1/C=C/OC2(C)Oc3c(C)c(O)c4c(O)c(c(N5CCC(CC6CCCCC6)CC5)c(O)c4c3C2=O)NC(=O)/C(C)=C\C=C\C(C)C(O)C(C)C(O)C(C)C(OC(C)=O)C1C (configuration not stated)	Staphylococcus aureus	not met
COC1/C=C/OC2(C)Oc3c(C)c(O)c4c(O)c(c(C=NN5CCN(Cc6c(C)cc(C)cc6C)CC5)c(O)c4c3C2=O)NC(=O)/C(C)=C\C=C\C(C)C(O)C(C)C(O)C(C)C(OC(C)=O)C1C (configuration not stated)	Staphylococcus aureus	not met
COC1/C=C/OC2(C)Oc3c(C)c(O)c4c(O)c(c(C=NN5CCN6CCCCC6C5)c(O)c4c3C2=O)NC(=O)/C(C)=C\C=C\C(C)C(O)C(C)C(O)C(C)C(OC(C)=O)C1C (configuration not stated)	Staphylococcus aureus	met
COC1/C=C/OC2(C)Oc3c(C)c(O)c4c(O)c(c(N5CCNCC5C(=O)O)c(O)c4c3C2=O)NC(=O)/C(C)=C\C=C\C(C)C(O)C(C)C(O)C(C)C(OC(C)=O)C1C (configuration not stated)	Staphylococcus aureus	not met
COC1/C=C/OC2(C)Oc3c(C)c(O)c4c(O)c(c(N5CCC(Cc6ccccc6)CC5)c(O)c4c3C2=O)NC(=O)/C(C)=C\C=C\C(C)C(O)C(C)C(O)C(C)C(OC(C)=O)C1C (configuration not stated)	Staphylococcus aureus	not met
CC(=O)OC1C(C)C2/C=C/OC3(C)Oc4c(C)c(O)c5c(O)c(c(N6CCN(Cc7c(C)cc(C)cc7C)CC6)c(O)c5c4C3=O)NC(=O)/C(C)=C\C=C\C(C)C(O)C(C)C(O2)C1C (configuration not stated)	Staphylococcus aureus	not met
COC1/C=C/OC2(C)Oc3c(C)c(O)c4c(O)c(c5[nH]c(N6CCN(Cc7ccccc7)CC6)nc5c4c3C2=O)NC(=O)/C(C)=C\C=C\C(C)C(O)C(C)C(O)C(C)C(OC(C)=O)C1C (configuration not stated)	Staphylococcus aureus	met
COC1/C=C/OC2(C)Oc3c(C)c(O)c4c(O)c(c(N5CCN(Cc6c(C)cc(C)cc6C)CC5)c(O)c4c3C2=O)NC(=O)C(C)CCCC(C)C(O)C(C)C(O)C(C)C(OC(C)=O)C1C (configuration not stated)	Staphylococcus aureus	not met
COC1/C=C/OC2(C)Oc3c(C)c(O)c4c(O)c(c(N5CCN(Cc6c(C)cc(C)cc6C)CC5)c(O)c4c3C2=O)NC(=O)/C(C)=C\C=C\C(C)C2OC(C)(C)OC(C2C)C(C)C(OC(C)=O)C1C (configuration not stated)	Staphylococcus aureus	not met
COC1/C=C/OC2(C)Oc3c(C)c(O)c4c(O)c(c5nc6cc(C)ccc6nc5c4c3C2=O)NC(=O)/C(C)=C\C=C\C(C)C(O)C(C)C(O)C(C)C(OC(C)=O)C1C (configuration not stated)	Staphylococcus aureus	met
COC1/C=C/OC2(C)Oc3c(C)c(OC(=O)C(C)(C)C)c4c(c3C2=O)C(=O)C(N2CCN(Cc3c(C)cc(C)cc3C)CC2)=C(C4=O)N(C(=O)C(C)(C)C)C(=O)/C(C)=C\C=C\C(C)C(O)C(C)C(O)C(C)C(OC(C)=O)C1C (configuration not stated)	Staphylococcus aureus	not met
Cc1cc(C)c(CN2CCN(C3=CC(=O)c4ccccc4C3=O)CC2)c(C)c1	Staphylococcus aureus	not met

====

- Tested on: Rattus norvegicus
- Test Description: Hypolipidemic activity was determined in male rats, and high-density lipoprotein level was determined at 20 mg/kg
- Type: functional

Compound	Activity
COC1/C=C/OC2(C)Oc3c(C)c(O)c4c(O)c(c(N5CCC(CC6CCCCC6)CC5)c(O)c4c3C2=O)NC(=O)/C(C)=C\C=C\C(C)C(O)C(C)C(O)C(C)C(OC(C)=O)C1C (stereo unspecified)	-67%
COC1/C=C/OC2(C)Oc3c(C)c(O)c4c(O)c(c(N5CCC(Cc6ccccc6)CC5)c(O)c4c3C2=O)NC(=O)/C(C)=C\C=C\C(C)C(O)C(C)C(O)C(C)C(OC(C)=O)C1C (stereo unspecified)	-51%
COC1/C=C/OC2(C)Oc3c(C)c(O)c4c(O)c(c(N5CCCCC5)c(O)c4c3C2=O)NC(=O)/C(C)=C\C=C\C(C)C(O)C(C)C(O)C(C)C(OC(C)=O)C1C (stereo unspecified)	-36%
COC1/C=C/OC2(C)Oc3c(C)c(O)c4c(O)c(c(N5CCC(C(C)(C)C)CC5)c(O)c4c3C2=O)NC(=O)/C(C)=C\C=C\C(C)C(O)C(C)C(O)C(C)C(OC(C)=O)C1C (stereo unspecified)	-48%
CCCCCCCCCCCCN1CCN(c2c3c(O)c4c(O)c(C)c5c(c4c2O)C(=O)C(C)(O/C=C/C(OC)C(C)C(OC(C)=O)C(C)C(O)C(C)C(O)C(C)/C=C/C=C(/C)C(=O)N3)O5)CC1 (stereo unspecified)	-53%
COC1/C=C/OC2(C)Oc3c(C)c(O)c4c(O)c(c(N5CCC(CO)CC5)c(O)c4c3C2=O)NC(=O)/C(C)=C\C=C\C(C)C(O)C(C)C(O)C(C)C(OC(C)=O)C1C (stereo unspecified)	-10%
COC1/C=C/OC2(C)Oc3c(C)c(O)c4c(O)c(c(N5CCN(Cc6ccc(C(C)(C)C)cc6)CC5)c(O)c4c3C2=O)NC(=O)/C(C)=C\C=C\C(C)C(O)C(C)C(O)C(C)C(OC(C)=O)C1C (stereo unspecified)	-71%
COC1/C=C/OC2(C)Oc3c(C)c(O)c4c(O)c(c(N5CCC(C)CC5)c(O)c4c3C2=O)NC(=O)/C(C)=C\C=C\C(C)C(O)C(C)C(O)C(C)C(OC(C)=O)C1C (stereo unspecified)	-30%
COC1/C=C/OC2(C)Oc3c(C)c(OC(=O)C(C)(C)C)c4c(c3C2=O)C(=O)C(N2CCN(Cc3c(C)cc(C)cc3C)CC2)=C(NC(=O)/C(C)=C\C=C\C(C)C(O)C(C)C(O)C(C)C(OC(C)=O)C1C)C4=O (stereo unspecified)	-53%
COC1/C=C/OC2(C)Oc3c(C)c(O)c4c(O)c(c(N5CCC(C(C)C)CC5)c(O)c4c3C2=O)NC(=O)/C(C)=C\C=C\C(C)C(O)C(C)C(O)C(C)C(OC(C)=O)C1C (stereo unspecified)	-61%
COC1/C=C/OC2(C)Oc3c(C)c(O)c4c(O)c(c(N5CCC(C6CCCC6)CC5)c(O)c4c3C2=O)NC(=O)/C(C)=C\C=C\C(C)C(O)C(C)C(O)C(C)C(OC(C)=O)C1C (stereo unspecified)	-40%
